experimentalContext: in methanol, 313.15 K
propertyMeasured: solubility (mole fraction)
Please respond with just the number, no unit label.

Inquiry: What value of solubility (mole fraction) has been reported for the following compound? O=Cc1ccc2ccccc2c1
Reply text: 0.119

---

experimentalContext: in n-hexane, 308.15 K
propertyMeasured: solubility (mole fraction)

Inquiry: What value of solubility (mole fraction) has been reported for the following compound? O=Cc1ccc2ccccc2c1
Reply text: 0.026

---

experimentalContext: in ethanol, 283.15 K
propertyMeasured: solubility (mole fraction)
Please respond with just the number, no unit label.

Inquiry: What value of solubility (mole fraction) has been reported for the following molecule? O=Cc1ccc2ccccc2c1
Reply text: 0.0161

---

experimentalContext: in ethanol, 298.15 K
propertyMeasured: solubility (mole fraction)

Inquiry: What value of solubility (mole fraction) has been reported for the following compound? O=Cc1ccc2ccccc2c1
Reply text: 0.0653
